Field: folding stability dG. Provide a value for each of the variants that follow.
B1: EEHEE_rd4_0363 (parent)
chain: VTVDIKGMEYHFDNPEEAKKFAERMAKELGGELKVENGTLKVE

- Variants of: B1
- assay: folding stability dG (cDNA display proteolysis); higher = more stable
- run conditions: PBS, room temperature
The reply must contain the numeric value and, after it, the unit.

Query block: I'd like to know its folding stability dG. The variant in question is D4N
Result block: 2.67 kcal/mol

Query block: I'd like to know its folding stability dG. The variant in question is E28Y
Result block: 2.07 kcal/mol

Query block: I'd like to know its folding stability dG. The variant in question is L40M
Result block: 1.67 kcal/mol

Query block: I'd like to know its folding stability dG. The variant in question is E23F
Result block: 1.27 kcal/mol

Query block: I'd like to know its folding stability dG. The variant in question is L33N
Result block: 0.799 kcal/mol

Query block: I'd like to know its folding stability dG. The variant in question is E28W
Result block: 2.26 kcal/mol

Query block: I'd like to know its folding stability dG. The variant in question is A22H
Result block: 0.228 kcal/mol

Query block: I'd like to know its folding stability dG. The variant in question is Y10M
Result block: 0.781 kcal/mol

Query block: I'd like to know its folding stability dG. The variant in question is K27Y
Result block: 2.27 kcal/mol

Query block: I'd like to know its folding stability dG. The variant in question is L29N
Result block: 1.05 kcal/mol

Query block: I'd like to know its folding stability dG. The variant in question is K20L
Result block: 2.06 kcal/mol

Query block: I'd like to know its folding stability dG. The variant in question is E32Y
Result block: 2.96 kcal/mol

Query block: I'd like to know its folding stability dG. The variant in question is E36H
Result block: 1.83 kcal/mol

Query block: I'd like to know its folding stability dG. The variant in question is K20E
Result block: 2.08 kcal/mol

Query block: I'd like to know its folding stability dG. The variant in question is E9N
Result block: 1.71 kcal/mol

Query block: I'd like to know its folding stability dG. The variant in question is T2S
Result block: 1.31 kcal/mol

Query block: I'd like to know its folding stability dG. The variant in question is K19I
Result block: 2.38 kcal/mol

Query block: I'd like to know its folding stability dG. The variant in question is N14E
Result block: 1.18 kcal/mol

Query block: I'd like to know its folding stability dG. The variant in question is K20N
Result block: 1.77 kcal/mol

Query block: I'd like to know its folding stability dG. The variant in question is E43Q
Result block: 2.07 kcal/mol

Query block: I'd like to know its folding stability dG. The variant in question is D13V
Result block: 1.64 kcal/mol

Query block: I'd like to know its folding stability dG. The variant in question is Y10R
Result block: 0.383 kcal/mol

Query block: I'd like to know its folding stability dG. The variant in question is T2E
Result block: 0.41 kcal/mol

Query block: I'd like to know its folding stability dG. The variant in question is V1T
Result block: 2.01 kcal/mol

Query block: I'd like to know its folding stability dG. The variant in question is P15H
Result block: 2.05 kcal/mol

Query block: I'd like to know its folding stability dG. The variant in question is V3G
Result block: 0.059 kcal/mol

Query block: I'd like to know its folding stability dG. The variant in question is F12C
Result block: 1.66 kcal/mol

Query block: I'd like to know its folding stability dG. The variant in question is F12Y
Result block: 0.382 kcal/mol

Query block: I'd like to know its folding stability dG. The variant in question is E9S
Result block: 2.32 kcal/mol

Query block: I'd like to know its folding stability dG. The variant in question is E43T
Result block: 2.38 kcal/mol

Query block: I'd like to know its folding stability dG. The variant in question is V42H
Result block: 0.832 kcal/mol

Query block: I'd like to know its folding stability dG. The variant in question is N14W
Result block: 0.812 kcal/mol

Query block: I'd like to know its folding stability dG. The variant in question is G30Y
Result block: 1.27 kcal/mol

Query block: I'd like to know its folding stability dG. The variant in question is E23T
Result block: 1.31 kcal/mol

Query block: I'd like to know its folding stability dG. The variant in question is E23N
Result block: 0.999 kcal/mol

Query block: I'd like to know its folding stability dG. The variant in question is E9Y
Result block: 2.6 kcal/mol

Query block: I'd like to know its folding stability dG. The variant in question is E16F
Result block: 1.7 kcal/mol

Query block: I'd like to know its folding stability dG. The variant in question is E9I
Result block: 3.25 kcal/mol

Query block: I'd like to know its folding stability dG. The variant in question is E32N
Result block: 2.21 kcal/mol

Query block: I'd like to know its folding stability dG. The variant in question is K19V
Result block: 1.96 kcal/mol

Query block: I'd like to know its folding stability dG. The variant in question is V42D
Result block: 0.806 kcal/mol

Query block: I'd like to know its folding stability dG. The variant in question is M25K
Result block: 1.37 kcal/mol

Query block: I'd like to know its folding stability dG. The variant in question is K34H
Result block: 1.82 kcal/mol

Query block: I'd like to know its folding stability dG. The variant in question is G31R
Result block: 0.865 kcal/mol

Query block: I'd like to know its folding stability dG. The variant in question is E17C
Result block: 2.09 kcal/mol

Query block: I'd like to know its folding stability dG. The variant in question is D13R
Result block: 1.74 kcal/mol

Query block: I'd like to know its folding stability dG. The variant in question is V42R
Result block: 0.352 kcal/mol

Query block: I'd like to know its folding stability dG. The variant in question is K41C
Result block: 1.64 kcal/mol

Query block: I'd like to know its folding stability dG. The variant in question is R24D
Result block: 1.68 kcal/mol

Query block: I'd like to know its folding stability dG. The variant in question is L33K
Result block: 0.659 kcal/mol

Query block: I'd like to know its folding stability dG. The variant in question is E43V
Result block: 3.14 kcal/mol

Query block: I'd like to know its folding stability dG. The variant in question is V42M
Result block: 0.942 kcal/mol

Query block: I'd like to know its folding stability dG. The variant in question is G38W
Result block: 0.438 kcal/mol

Query block: I'd like to know its folding stability dG. The variant in question is Y10K
Result block: 0.191 kcal/mol

Query block: I'd like to know its folding stability dG. The variant in question is V42C
Result block: 1.4 kcal/mol

Query block: I'd like to know its folding stability dG. The variant in question is P15I
Result block: 2.58 kcal/mol

Query block: I'd like to know its folding stability dG. The variant in question is V3Y
Result block: 0.332 kcal/mol

Query block: I'd like to know its folding stability dG. The variant in question is K34L
Result block: 1.77 kcal/mol

Query block: I'd like to know its folding stability dG. The variant in question is G31H
Result block: 1.27 kcal/mol

Value source: the MegaScale stability set (Tsuboyama et al. 2023)
